This collection of values is drawn from PubChem BioAssay AID1159580.

test: chemical genetic growth profiling, strain panel (AID 1159580);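 further: tested at 20 µM; growth read once vehicle control cultures reached saturation at 30 °C; lower values mean less growth of the strain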
settings: S. cerevisiae deletion strains, growth OD, locus YMR307W, strain GAS1, stronger effect = lower value
About 2,000 (36%) of roughly 5,500 compounds were called active. Another 18% or so got no clear call; they are omitted. This is one part of the list.
Assign labels as follows, please: Yes for normalized growth below 1; No for normalized growth equal to or exceeding 1.

> print(dat)
                                   compound  qualitative.label
1  CN1C/C(=C\c2ccccc2Cl)C(=O)/C(=C/c2ccccc2Cl)C1                Yes
2       Cc1ccc2c(c1)CC[C@H]1CC(=O)CC[C@]21C                Yes
3      CN(C)/C=C1\C(=O)c2ccccc2N(C)S1(=O)=O                Yes
4                              Cc1ccc(O)cc1                 No
5  CC(=O)[C@H]1CCC2C3C[C@H](C)C4=CC(=O)CC[C@]4(C)C3[C@@H](O)C[C@@]21C (stereo partly specified)                 No
6     C/C=C(/C(=C/C)c1ccc(O)cc1)c1ccc(O)cc1                Yes
7  CNC1(C)C2CCC(C2)C1(C)C (stereo unspecified)                 No
8  CCCCCC(=O)O[C@]1(C(C)=O)CCC2C3CCC4=CC(=O)CC[C@]4(C)C3CC[C@@]21C (stereo partly specified)                 No
9  COc1ccc2cc1Oc1ccc(cc1)C[C@H]1c3cc(c(OC)cc3CCN1C)Oc1c(OC)c(OC)cc3c1[C@H](C2)N(C)CC3                Yes
